Test system: Cyp39a1
Assay: Hepatic RNA-Seq differential gene expression (fold change, P1(t), ED50, BMD, BMDL)
Type: in vivo, mouse
Details: C57BL/6, mouse, liver, oral; male mice, TCDD every 4 d for 28 d
ENDPOINT NAME: fold induction at 28 d
One number for each entry.

What does the record list as fold induction at 28 d for Clc1cc2c(cc1Cl)Oc1cc(Cl)c(Cl)cc1O2 [TCDD, 2,3,7,8-tetrachlorodibenzo-p-dioxin] ? 2.1

###

Tested on: Abcc4
Assay: Hepatic RNA-Seq differential gene expression (fold change, P1(t), ED50, BMD, BMDL)
Type: in vivo, mouse
Conditions: C57BL/6, mouse, liver, oral; male mice, 30 µg/kg TCDD every 4 d for 28 d
ENDPOINT NAME: fold induction at 28 d
One number for each entry.

What measured fold induction at 28 d goes with Clc1cc2c(cc1Cl)Oc1cc(Cl)c(Cl)cc1O2 [TCDD, 2,3,7,8-tetrachlorodibenzo-p-dioxin] ? 58.1

###

Tested on: Slc6a6
Experiment: Hepatic RNA-Seq differential gene expression (fold change, P1(t), ED50, BMD, BMDL)
Type: in vivo, mouse
Settings: C57BL/6, mouse, liver, oral; male mice, TCDD every 4 d for 28 d
ENDPOINT NAME: fold induction at 28 d

Can you look up fold induction at 28 d on Slc6a6 for Clc1cc2c(cc1Cl)Oc1cc(Cl)c(Cl)cc1O2 ? 1.8

###

System: Slc51a
Assay: Ileal epithelium RNA-Seq differential gene expression (fold change, P1(t), ED50, BMD, BMDL)
Type: in vivo, mouse
Details: C57BL/6, mouse, ileal epithelium, oral; male mice, TCDD every 4 d for 28 d
Description: Frozen ileal epithelium scrapings and liver samples were homogenized in TRIzol (Ambion, Waltham, MA) using a Mixer Mill 300 tissue homogenizer (Retsch, Germany) and total RNA was isolated as previously described. RNA was quantified using a Nano-drop spectrophotometer (Thermo Scientific, Wilmington, DE) at 260 nm, and purity was assessed using the A260/A280 ratio and the Caliper LabChip GX (Perkin Elmer, Waltham, MA). […]
ENDPOINT NAME: fold induction at 28 d
Answers are plain numbers.

Fill in the blank: the reported fold induction at 28 d of Clc1cc2c(cc1Cl)Oc1cc(Cl)c(Cl)cc1O2 is ____. 1.5
